// provenance: ChEMBL document CHEMBL4270513

- assay_target: Melanocortin receptor 3 (Homo sapiens)
- procedure_text: Agonist activity at human MC3R expressed in HEK293 cells after 3 mins by cAMP assay
pEC50: −log10 of the molar value. Square brackets hold non-standard residues; d marks the D form. Peptide text beside a SMILES is read from it. dPhe(4-Cl) = N[C@H](Cc1ccc(Cl)cc1)C(=O)O; dPhe(4-F) = N[C@H](Cc1ccc(F)cc1)C(=O)O; d2Nal = N[C@H](Cc1ccc2ccccc2c1)C(=O)O; Nle = CCCC[C@H](N)C(=O)O
measurement_kind: pEC50

Answered cases to consult:
molecule	pEC50
CCCC[C@H](NC(=O)[C@@H](Cc1ccccc1)NC(=O)[C@H](Cc1cnc[nH]1)NC(C)=O)C(=O)N[C@@H](Cc1c[nH]c2ccccc12)C(N)=O (Ac-H[dF][Nle]W-NH2)	6.92
CCCC[C@H](NC(=O)[C@@H](Cc1ccc(F)cc1)NC(=O)[C@H](Cc1cnc[nH]1)NC(C)=O)C(=O)N[C@@H](Cc1c[nH]c2ccccc12)C(N)=O (Ac-H[dPhe(4-F)][Nle]W-NH2)	6.50

P. CCCC[C@H](NC(=O)[C@@H](Cc1ccc(Cl)cc1)NC(=O)[C@H](Cc1cnc[nH]1)NC(C)=O)C(=O)N[C@@H](Cc1c[nH]c2ccccc12)C(N)=O (Ac-H[dPhe(4-Cl)][Nle]W-NH2)
Q. CCCC[C@H](NC(=O)[C@@H](Cc1ccc2ccccc2c1)NC(=O)[C@H](Cc1cnc[nH]1)NC(C)=O)C(=O)N[C@@H](Cc1c[nH]c2ccccc12)C(N)=O (Ac-H[d2Nal][Nle]W-NH2)
Input line: P or Q : whose pEC50 is greater? Please indicate the selected item by its label.
Output line: P
(P: 6.94, Q: 6.59)

----------
- assay_target: Melanocortin receptor 3 (Homo sapiens)
- procedure_text: Agonist activity at human MC3R expressed in HEK293 cells at 10 uM after 3 mins by cAMP assay relative to MT-2
- Assay type: functional, cell-based
Square brackets hold non-standard residues; d marks the D form. Peptide text beside a SMILES is read from it. dPhe(4-Br) = N[C@H](Cc1ccc(Br)cc1)C(=O)O; d2Nal = N[C@H](Cc1ccc2ccccc2c1)C(=O)O; Nle = CCCC[C@H](N)C(=O)O
measurement_kind: Activity (%)

compound	Activity (%)
CCCC[C@H](NC(=O)[C@@H](Cc1ccc(Br)cc1)NC(=O)[C@@H]1CCCN1C(C)=O)C(=O)N[C@@H](Cc1c[nH]c2ccccc12)C(N)=O (Ac-P[dPhe(4-Br)][Nle]W-NH2)	23.1

A. CCCC[C@H](NC(=O)[C@@H](Cc1ccccc1)NC(=O)[C@@H]1CCCN1C(C)=O)C(=O)N[C@@H](Cc1c[nH]c2ccccc12)C(N)=O (Ac-P[dF][Nle]W-NH2)
B. CCCC[C@H](NC(=O)[C@@H](Cc1ccc2ccccc2c1)NC(=O)[C@H](Cc1cnc[nH]1)NC(C)=O)C(=O)N[C@@H](Cc1c[nH]c2ccccc12)C(N)=O (Ac-H[d2Nal][Nle]W-NH2)
Input line: Hi! Which is lower in terms of Activity, the first one A or the second one B ? To answer, give the label that identifies your chosen option.
Output line: A

----------
- assay_target: Melanocortin receptor 3 (Homo sapiens, UniProt P41968)
- Sequence (P41968 whole entry): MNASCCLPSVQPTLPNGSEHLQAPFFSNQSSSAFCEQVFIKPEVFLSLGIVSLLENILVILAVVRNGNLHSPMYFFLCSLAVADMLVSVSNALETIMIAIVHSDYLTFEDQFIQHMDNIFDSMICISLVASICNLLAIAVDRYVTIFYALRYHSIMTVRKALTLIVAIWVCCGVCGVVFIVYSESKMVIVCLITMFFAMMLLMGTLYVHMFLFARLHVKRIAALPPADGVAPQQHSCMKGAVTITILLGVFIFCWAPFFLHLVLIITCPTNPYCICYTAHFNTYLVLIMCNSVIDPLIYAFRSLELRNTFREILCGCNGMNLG
- procedure_text: Displacement of [125I]-[Nle4,d-Phe7]-alpha-MSH from human MC3R expressed in HEK293 cells at 10 uM after 40 mins by gamma counting analysis relative to control
- Assay type: cell-based
Square brackets hold non-standard residues; d marks the D form. Peptide text beside a SMILES is read from it. dPhe(4-CF3) = N[C@H](Cc1ccc(C(F)(F)F)cc1)C(=O)O; dPhe(4-Br) = N[C@H](Cc1ccc(Br)cc1)C(=O)O; d2Nal = N[C@H](Cc1ccc2ccccc2c1)C(=O)O; Nle = CCCC[C@H](N)C(=O)O
measurement_kind: %max (%)

Reference set (3 entries):
compound	assay_target	uom	%max
CCCC[C@H](NC(=O)[C@@H](Cc1ccc2ccccc2c1)NC(=O)[C@H](Cc1cnc[nH]1)NC(C)=O)C(=O)N[C@@H](Cc1c[nH]c2ccccc12)C(N)=O (Ac-H[d2Nal][Nle]W-NH2)	Melanocortin receptor 3 (Homo sapiens, UniProt P41968)	%	80
CC(=O)N[C@@H](Cc1cnc[nH]1)C(=O)N[C@H](Cc1ccccc1)C(=O)N[C@@H](CCCNC(=N)N)C(=O)N[C@@H](Cc1c[nH]c2ccccc12)C(N)=O	Melanocortin receptor 3 (Homo sapiens, UniProt P41968)	%	100
CCCC[C@H](NC(=O)[C@@H](Cc1ccc(Br)cc1)NC(=O)[C@@H]1CCCN1C(C)=O)C(=O)N[C@@H](Cc1c[nH]c2ccccc12)C(N)=O (Ac-P[dPhe(4-Br)][Nle]W-NH2)	Melanocortin receptor 3 (Homo sapiens, UniProt P41968)	%	76

a. CCCC[C@H](NC(=O)[C@@H](Cc1ccc(Br)cc1)NC(=O)[C@H](Cc1cnc[nH]1)NC(C)=O)C(=O)N[C@@H](Cc1c[nH]c2ccccc12)C(N)=O (Ac-H[dPhe(4-Br)][Nle]W-NH2)
b. CCCC[C@H](NC(=O)[C@@H](Cc1ccc(C(F)(F)F)cc1)NC(=O)[C@@H]1CCCN1C(C)=O)C(=O)N[C@@H](Cc1c[nH]c2ccccc12)C(N)=O (Ac-P[dPhe(4-CF3)][Nle]W-NH2)
Input line: Field: lower recorded %max (choose a or b ) Lab log: write the label of the selected item as the result.
Output line: b
